MIC for assorted compounds
- Tested on: Escherichia coli
- TEST DETAILS: Antimicrobial activity against Escherichia coli
- Format: functional
Give the value, in units of µM, as a plain number.

compound="CC(C)C[C@@H]1NC(=O)[C@@H](Cc2ccccc2)NC(=O)[C@H](CCN)NC(=O)[C@@H](NC(=O)[C@H](CCN)NC(=O)[C@@H](NC(=O)[C@H](Cc2ccccc2)NC(=O)O)[C@@H](C)O)CCNC(=O)[C@H]([C@@H](C)O)NC(=O)[C@H](CCN)NC(=O)[C@H](CCN)NC1=O [DESFA-[PHE1]POLYMYXIN B]" test_system="Escherichia coli" endpoint_unit=µM measured_result=8

Shift focus to the following entry.
Query :: Which MIC is listed for CCC(C)CCC(O)CC(=O)N[C@@H](CCN)C(=O)N[C@H](C(=O)N[C@@H](CCN)C(=O)N[C@H]1CCNC(=O)[C@H]([C@@H](C)O)NC(=O)[C@H](CCN)NC(=O)[C@H](CCN)NC(=O)[C@H](CC(C)C)NC(=O)[C@@H](Cc2ccccc2)NC(=O)[C@H](CCN)NC1=O)[C@@H](C)O (stereo partly drawn) ?
Result :: 0.5

Values were extracted from ChEMBL document CHEMBL1156251.
